- Tested on: Fibroblast
- procedure-text: Multiplex assay against human fibroblast
- Assay type: toxicity, cell-based
- particulars: 24 h, 1 µM, compound concentration 1 uM, replicate 1
measurement-kind: Population Membrane Permeable-Phenotype (%)
Answers are plain numbers, in %.

// solved cases for Population Membrane Permeable-Phenotype (%) follow
# compound, measurement-units, result-value
data = [
    ("O=S(=O)(c1ccccc1)c1cnc2c(N3CCNCC3)cccc2c1 [INTEPIRDINE]", "%", 2),
    ("CN(C)CCCc1cc(C(=O)Nc2ccc(-c3ccncc3)cc2)ccc1O.Cl.Cl", "%", 2),
    ("c1cc(OCCCN2CCCCC2)ccc1CN1CCCCC1", "%", 0),
]

Fill in Population Membrane Permeable-Phenotype (%) for each of the 2 compounds listed.
1. O=C(NCC(=O)N1CC[C@H](N[C@H]2CC[C@@](O)(c3ccc(-c4ncccn4)cn3)CC2)C1)c1cccc(C(F)(F)F)c1
2. Cc1nc2ccc(Oc3ccc(F)cc3)cc2c(=O)n1C[C@H]1CCCN(C(C)C)C1.Cl

Solution:
[1, 1]

Fill in Population Membrane Permeable-Phenotype (%) for each of the 2 compounds listed.
1. CNC[C@H](O)c1ccc(O)c(O)c1 [EPINEPHRINE]
2. CC[C@H]1OC(=O)[C@H](C)[C@@H](O[C@H]2C[C@@](C)(OC)[C@@H](O)[C@H](C)O2)[C@H](C)[C@@H](O[C@@H]2O[C@H](C)C[C@H](N(C)C)[C@H]2O)[C@@]2(C)CC(C)=C(O2)[C@H](C)[C@@H](O)[C@]1(C)O

Solution:
0
0

Problem: Any idea what Population Membrane Permeable-Phenotype (%) was measured for CC1(COc2ccc3c(c2)ncn3-c2ccc3cccc(N4CCC(N)CC4)c3n2)COC1 ?
Solution: 0

----------
- Test system: HEK-293T
- procedure-text: Multiplex assay against HEK293T
- Type: toxicity, cell-based
- particulars: human, 48 h, 1 µM, compound concentration 1 uM, replicate 1
measurement-kind: Population Hoechst High Intensity Objects (%)
Give bare numbers, in %.

// solved cases for Population Hoechst High Intensity Objects (%) follow
# compound, result-value
measured = [
    ("CN(C)c1ccnc2sc3c(=O)n(N4CCCCCC4)cnc3c12", 2),
    ("COc1cc(C(=O)N(CCCc2ccccc2)Cc2ccc(CC(=O)O)cc2)cc(OC)c1C", 1),
    ("CSc1ccccc1N1CCN(CCCCCC(=O)NC2CCCc3ccccc32)CC1.Cl (stereo not given)", 4),
    ("Cc1ccc(/C(=C\\CN2CCCC2)c2ccccn2)cc1", 1),
]

Problem: Any idea what Population Hoechst High Intensity Objects (%) was measured for N[C@@]1(C(=O)O)CO[C@H]2[C@H](C(=O)O)[C@H]21 ?
Solution: 3

----------
- Tested on: HEK-293T
- procedure-text: Multiplex assay against HEK293T
- Type: toxicity, cell-based
- particulars: human, 12 h, 1 µM, compound concentration 1 uM, replicate 1
Decision: Population Mitochondria Different-Phenotype (%) compared against 50%; not below it gives YES, below it gives NO.

Worked examples, 3 molecules total:
# molecule, classification
measured = [
    ("CSc1ccccc1N1CCN(CCCCCC(=O)NC2CCCc3ccccc32)CC1.Cl (configuration not stated)", "YES"),
    ("CC(=O)NCCc1c(Cc2ccccc2)[nH]c2ccccc12", "YES"),
    ("O=C1COc2nccc(-c3ccccc3F)c2CN1Cc1cc(C(F)(F)F)cc(C(F)(F)F)c1", "NO"),
]

Problem: Evaluate O=S(=O)(c1ccccc1)c1cnc2c(N3CCNCC3)cccc2c1 [INTEPIRDINE] : Population Mitochondria Different-Phenotype (%) at minimum 50%?
Solution: YES

Problem: Evaluate CN1CCN2c3ncccc3Cc3ccccc3C2C1 (configuration not stated) : Population Mitochondria Different-Phenotype (%) at minimum 50%?
Solution: NO

Problem: Evaluate COc1cc(C(=O)N(CCCc2ccccc2)Cc2ccc(CC(=O)O)cc2)cc(OC)c1C : Population Mitochondria Different-Phenotype (%) at minimum 50%?
Solution: NO
